Values from ChEMBL document CHEMBL2203219

experiment: Oral bioavailability in dog; format: ADME, organism-based, Canis lupus familiaris; details: in vivo
readoutKind: bioavailability (%)
Return type: number; implicit unit %.

Sample "Cn1cc(C(=O)NC[C@@H](O)CN2CCC(Oc3ccc(Cl)c(Cl)c3)CC2)c(C(F)(F)F)cc1=O" ; bioavailability observed: 81

The compound listed as "O=C(NC[C@@H](O)CN1CCC(Oc2ccc(Cl)c(Cl)c2)CC1)c1c[nH]c(=O)cc1C(F)(F)F" has a reported bioavailability of 63

Briefly, bioavailability measured for "O=C(NC[C@@H](O)CN1CCC(Oc2ccc(Cl)c(Cl)c2)CC1)c1c[nH]c(=O)c2ccccc12" : 40

* * *

assay: in vitro; conditions: rat, hepatocytes
For each record, write down the corresponding hepatocyte CLint.
Give your result in µL/min/1e6 cells as a bare value.

The value of hepatocyte CLint measured for the compound "O=C(NC[C@@H](O)CN1CCC(Oc2ccc(Cl)c(Cl)c2)CC1)c1c[nH]c(=O)c2cc(S(=O)(=O)NC3CC3)ccc12" turned out to be 6

Just so you know, measured hepatocyte CLint for "NC(=O)c1c(OC2CCN(C[C@H](O)CNC(=O)c3c[nH]c(=O)c4ccccc34)CC2)ccc(Cl)c1Cl" came out at 2

Consider "Cc1c(Cl)ccc(OC2CCN(C[C@H](O)CNC(=O)c3c[nH]c(=O)cc3C(F)(F)F)CC2)c1Cl" . Its measured hepatocyte CLint is 3

* * *

assay: in vitro; settings: rat, hepatocytes
readoutKind: hepatocyte CLint

Please fill in: hepatocyte CLint reported for "NS(=O)(=O)c1ccc2c(C(=O)NC[C@@H](O)CN3CCC(Oc4ccc(Cl)c(Cl)c4)CC3)c[nH]c(=O)c2c1" = < 3 µL/min/1e6 cells

The molecule listed as "Cc1cc(Cl)ccc1OC1CCN(C[C@H](O)CNC(=O)c2c[nH]c(=O)cc2C(F)(F)F)CC1" has a reported hepatocyte CLint of < 3 µL/min/1e6 cells

// hepatocyte CLint value for "Cc1cc(Cl)ccc1OC1CCN(C[C@H](O)CNC(=O)c2c[nH]c(=O)c3cc(F)ccc23)CC1" : < 3 µL/min/1e6 cells

* * *

Please respond with reported logD for every item in the list.
test: physchem; settings: octanol/water

Just so you know, measured logD for "Cc1cc(Cl)ccc1OC1CCN(C[C@H](O)CNC(=O)c2c[nH]c(=O)c3c(F)cccc23)CC1" came out at 3

Entry "Cc1c(Cl)ccc(OC2CCN(C[C@H](O)CNC(=O)c3c[nH]c(=O)c4ccc(S(C)(=O)=O)cc34)CC2)c1Cl" , logD reported as 2.8

The recorded logD for entry "Cc1c(Cl)ccc(OC2CCN(C[C@H](O)CNC(=O)c3c[nH]c(=O)c4cc(S(C)(=O)=O)ccc34)CC2)c1Cl" equals 2.8

Per the records, this molecule ( "O=C(NC[C@@H](O)CN1CCC(Oc2ccc(Cl)c(Cl)c2)CC1)c1c[nH]c(=O)c2c(F)cccc12" ) has logD equal to 3.2

Field logD (entry "CNS(=O)(=O)c1ccc2c(C(=O)NC[C@@H](O)CN3CCC(Oc4ccc(Cl)c(Cl)c4)CC3)c[nH]c(=O)c2c1" ) reads 2.8

Per the records, this molecule ( "N#Cc1ccc(OC2CCN(C[C@H](O)CNC(=O)c3c[nH]c(=O)c4ccccc34)CC2)cc1Cl" ) has logD equal to 2.6

Measured logD, "O=C(NC[C@@H](O)CN1CCC(Oc2ccc(Cl)c(Cl)c2)CC1)c1c[nH]c(=O)c2ccc(F)cc12" : 3.9

For record "CS(=O)(=O)c1ccc2c(C(=O)NC[C@@H](O)CN3CCC(Oc4ccc(C#N)c(Cl)c4)CC3)c[nH]c(=O)c2c1" the listed logD is 1.4

The molecule identified as "CN(C)S(=O)(=O)c1ccc2c(C(=O)NC[C@@H](O)CN3CCC(Oc4ccc(Cl)c(Cl)c4)CC3)c[nH]c(=O)c2c1" registered its logD at 3.1

Per the record, "NC(=O)c1c(OC2CCN(C[C@H](O)CNC(=O)c3c[nH]c(=O)c4ccccc34)CC2)ccc(Cl)c1Cl" has logD of 1.5

Record "Cc1cc(Cl)ccc1OC1CCN(C[C@H](O)CNC(=O)c2c[nH]c(=O)c3cc(S(C)(=O)=O)ccc23)CC1" . Reported logD: 2.4
